Please go through the items and note down their IC50.
system: Raji; assay: Cytotoxicity against human Raji cells after 72 hrs by MTT assay; format: functional, cell-based
Give bare numbers, in nM.

> print(dat)
                                   compound  quantity.unit  meas.value
1  O=C1C[C@H]2O[C@H]([C@@H](O)c3ccccc3)[C@H](O)[C@H]2O1             nM        1250
2  O=C(/C=C/c1ccccc1)O[C@H](c1ccccc1)[C@H]1O[C@@H]2CC(=O)O[C@@H]2[C@H]1O [(+)-CRASSALACTONE C]             nM       15500
3  O=C(/C=C/c1ccccc1)O[C@@H](c1ccccc1)[C@@H]1O[C@H]2CC(=O)O[C@H]2[C@@H]1O [CRASSALACTONE C (ENANTIOMERIC MIX)]             nM         570

Continue with the next compound.
[Q] Looking for the measured IC50 of O=C1C[C@@H]2O[C@@H]3[C@@H](O[C@H]3c3ccccc3)[C@@H]2O1 , can you help?
[A] 450

----------
test system: Jurkat; assay: Cytotoxicity against human Jurkat cells after 72 hrs by MTT assay; format: functional, cell-based
test_readout: IC50 (µM)
Answers are plain numbers, in µM.

Record excerpt, results attached:
> print(dat)
                                   molecule  meas.value
1  O=C1C[C@H]2O[C@H]([C@@H](O)c3ccccc3)[C@H](O)[C@H]2O1        18.6
2  O=C1C[C@@H]2O[C@@H]3[C@@H](O[C@H]3c3ccccc3)[C@@H]2O1        28.4
3  COc1cccc2c1C(=O)c1c(O)c3c(c(O)c1C2=O)C[C@@](O)(C(=O)CO)C[C@@H]3O[C@H]1C[C@H](N)[C@H](O)[C@H](C)O1        0.03
4  O=C1C[C@@H]2O[C@@H]([C@H](O)c3ccccc3)[C@@H](O)[C@@H]2O1        0.05
5  O=C(/C=C/c1ccccc1)O[C@H](c1ccccc1)[C@H]1O[C@@H]2CC(=O)O[C@@H]2[C@H]1O [(+)-CRASSALACTONE C]        25.4

[Q] Looking for the measured IC50 of O=C(/C=C/c1ccccc1)O[C@@H](c1ccccc1)[C@@H]1O[C@H]2CC(=O)O[C@H]2[C@@H]1O [CRASSALACTONE C (ENANTIOMERIC MIX)] , can you help?
[A] 15.7
